- SYSTEM_UNDER_TEST: PRMT5/MEP50 (Homo sapiens, UniProt O14744)
- Construct: Expressed full-length human Flag-PRMT5/6His-MeP50 protein complex was purified; made in house; host or cells: Spodoptera frugiperda (SF9) insect cells, baculovirus (pDEST8)
- Sequence (O14744 with tags, fused parts or gaps): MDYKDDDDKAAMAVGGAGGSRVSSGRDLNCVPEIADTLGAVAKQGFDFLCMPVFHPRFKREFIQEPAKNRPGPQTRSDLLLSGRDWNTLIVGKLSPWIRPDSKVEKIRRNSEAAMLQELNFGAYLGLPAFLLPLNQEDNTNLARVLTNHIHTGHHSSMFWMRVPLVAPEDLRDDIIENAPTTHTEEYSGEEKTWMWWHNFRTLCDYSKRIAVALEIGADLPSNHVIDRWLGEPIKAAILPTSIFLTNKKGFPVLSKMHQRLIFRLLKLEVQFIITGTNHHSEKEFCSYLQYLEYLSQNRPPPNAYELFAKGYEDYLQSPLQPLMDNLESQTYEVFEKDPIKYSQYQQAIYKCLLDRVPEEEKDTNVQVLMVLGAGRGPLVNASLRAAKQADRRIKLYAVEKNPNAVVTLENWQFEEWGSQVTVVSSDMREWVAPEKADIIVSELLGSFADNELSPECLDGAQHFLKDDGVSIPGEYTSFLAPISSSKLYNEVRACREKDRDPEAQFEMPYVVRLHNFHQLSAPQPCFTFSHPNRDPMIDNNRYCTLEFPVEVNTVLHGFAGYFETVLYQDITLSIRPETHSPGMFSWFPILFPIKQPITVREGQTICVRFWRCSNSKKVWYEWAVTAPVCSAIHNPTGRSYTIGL
- Sequence (Q9BQA1 with tags, fused parts or gaps partner limits assumed): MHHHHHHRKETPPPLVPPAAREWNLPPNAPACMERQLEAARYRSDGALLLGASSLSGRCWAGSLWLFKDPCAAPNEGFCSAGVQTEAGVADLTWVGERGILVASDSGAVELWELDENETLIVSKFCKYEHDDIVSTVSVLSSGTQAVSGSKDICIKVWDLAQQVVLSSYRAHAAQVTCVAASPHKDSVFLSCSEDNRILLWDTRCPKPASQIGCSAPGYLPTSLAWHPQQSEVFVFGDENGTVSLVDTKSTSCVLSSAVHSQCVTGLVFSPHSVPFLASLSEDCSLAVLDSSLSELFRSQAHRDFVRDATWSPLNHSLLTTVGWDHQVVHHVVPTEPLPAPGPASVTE
- PROCEDURE_SUMMARY: PRMT5 Biochemical Assay (PRMT5/MEP50 enzyme assay on peptide substrate, 3H-SAM Flashplate)
- RECORDED_CONDITIONS: Table D-2; read-out: Biochemical IC50
pIC50: −log10 of the molar value.
Exercise: for every item that follows, state its recorded pIC50.

Solved cases below.
OC(COc1cccc(-c2ccc3cn[nH]c3c2)c1)CN1CCc2ccccc2C1 (stereo not shown)	6.00 to 7.00
OC(COCc1cccnc1)CN1CCc2ccccc2C1 (stereo not shown)	4.40 to 5.00
CNC(=O)Cn1ccc2cnc(-c3cccc(OCC(O)CN4CCc5ccccc5C4)c3)nc21 (stereo not shown)	5.00 to 6.00

Please report pIC50 for every entry that follows.
1. OC(COc1cccc(-c2ccc(C(F)(F)F)cc2Cl)c1)CN1CCc2ccccc2C1 (stereo not shown)
2. N#Cc1cccc(-c2cccc(OCC(O)CN3CCc4ccccc4C3)c2)c1 (stereo not shown)
3. Cn1cnc2ccc(-c3cccc(OCC(O)CN4CCc5ccccc5C4COc4ccccc4)c3)cc21 (stereo not shown)
4. COc1ccc(Cn2cnc3ccc(-c4cccc(OCC(O)CN5CCc6ccccc6C5)c4)cc32)cc1 (stereo not shown)
5. Cn1cnc2ccc(-c3cccc(OCC(O)CN4Cc5ccccc5C(F)(F)C4)c3)cc21 (stereo not shown)
6. OC(COC1Cc2ccccc2C1)CN1CCc2ccccc2C1 (stereo not shown)
7. OC(COc1ccc(OCC(O)CN2CCc3ccccc3C2)cc1)CN1CCc2ccccc2C1 (stereo not shown)
8. O=C(c1ccc(Cn2ccc(-c3ccc(OCC(O)CN4CCc5ccccc5C4)cc3)n2)cc1)N1CCCC1 (stereo not shown)

Result block:
6.00 to 7.00
6.00 to 7.00
< 4.40
6.00 to 7.00
< 5.00
5.00 to 6.00
6.00 to 7.00
5.00 to 6.00

Please report pIC50 for every entry that follows.
1. OC(COCC1COc2ccccc2O1)CN1CCc2ccccc2C1 (stereo not shown)
2. CN1CCN(C(=O)Cn2ccc3cnc(-c4cccc(OCC(O)CN5CCc6ccccc6C5)c4)nc32)CC1 (stereo not shown)
3. Cn1cc(-c2cccc(OCC(O)CN3CCc4ccccc4C3)c2)cn1 (stereo not shown)
4. COc1ccc(-c2cccc(OCC(O)CN3CCc4ccccc4C3)c2)cc1 (stereo not shown)
5. COc1cccc(COCC(O)CN2CCc3ccccc3C2)c1 (stereo not shown)
6. Cc1cc(OCC(O)CN2CCc3ccccc3C2)c(C)cc1CN1CCOCC1 (stereo not shown)

Result block:
["6.00 to 7.00", "6.00 to 7.00", "5.00 to 6.00", "6.00 to 7.00", "5.00 to 6.00", "6.00 to 7.00"]

---

- SYSTEM_UNDER_TEST: PRMT5/MEP50 (Homo sapiens)
- Construct: Expressed full-length human Flag-PRMT5/6His-MeP50 protein complex was purified; made in house; host or cells: Spodoptera frugiperda (SF9) insect cells, baculovirus (pDEST8)
- PROCEDURE_SUMMARY: PRMT5 Biochemical Assay (PRMT5/MEP50 enzyme assay on peptide substrate, 3H-SAM Flashplate)
- RECORDED_CONDITIONS: Table D-2; read-out: Biochemical IC50
Exercise: for every item that follows, state its recorded IC50.

Solved cases below.
OC(COc1cccc(CNC2CCCC2)c1)CN1CCc2ccccc2C1 (stereo not shown) [Compound D1]	101 to 1000 nM
OC(COc1cccc(-c2ccc3ncn(C4CCOCC4)c3c2)c1)CN1CCc2ccccc2C1 (stereo not shown)	101 to 1000 nM
COc1ccccc1-c1cccc(OCC(O)CN2CCc3ccccc3C2)c1 (stereo not shown)	1000 to 10000 nM
O=C(Cn1ccc2cnc(-c3cccc(OCC(O)CN4CCc5ccccc5C4)c3)nc21)N1CCCCC1 (stereo not shown)	101 to 1000 nM
CC1CN(CC(O)COc2cccc(CNC3CCCC3)c2)Cc2ccccc21 (stereo not shown)	> 40000 nM

Please report IC50 for every entry that follows.
1. COc1ncc(-c2cccc(OCC(O)CN3CCc4ccccc4C3)c2)cn1 (stereo not shown)
2. Cn1ncc2ccc(-c3cc(COCC(O)CN4CCc5ccccc5C4)on3)cc21 (stereo not shown)
3. OC(COc1cccc(-c2ccccc2Oc2ccccc2)c1)CN1CCc2ccccc2C1 (stereo not shown)
4. CC(C)(C)OC(=O)N1CCC(OCC(O)CN2CCc3ccccc3C2)C1 (stereo not shown)
5. CC(C)(C)OC(=O)N1CC(OCC(O)CN2CCc3ccccc3C2)C1 (stereo not shown)
6. OC(COc1ccccc1-c1ccno1)CN1CCc2ccccc2C1 (stereo not shown)

Result block:
1: 1000 to 10000 nM; 2: 101 to 1000 nM; 3: 101 to 1000 nM; 4: 1000 to 10000 nM; 5: 1000 to 10000 nM; 6: 1000 to 10000 nM
